# tested.on: IRAK4 (Homo sapiens (Human))
# Sequence (Q9NWZ3 whole entry): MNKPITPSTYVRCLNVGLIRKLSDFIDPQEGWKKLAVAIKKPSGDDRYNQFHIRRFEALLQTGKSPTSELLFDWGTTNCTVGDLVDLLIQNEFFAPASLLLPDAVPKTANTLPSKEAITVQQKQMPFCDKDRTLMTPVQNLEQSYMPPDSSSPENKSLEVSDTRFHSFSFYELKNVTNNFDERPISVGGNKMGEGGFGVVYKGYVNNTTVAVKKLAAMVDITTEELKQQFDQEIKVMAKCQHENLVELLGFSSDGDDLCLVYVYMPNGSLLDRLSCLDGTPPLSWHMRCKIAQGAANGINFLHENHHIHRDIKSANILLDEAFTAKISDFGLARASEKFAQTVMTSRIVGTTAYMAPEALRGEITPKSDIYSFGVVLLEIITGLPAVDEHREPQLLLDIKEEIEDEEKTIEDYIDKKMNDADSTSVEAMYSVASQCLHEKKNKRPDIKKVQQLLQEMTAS
# measurement.notes: IRAK4 MSD degradation in OCI-LY10
# Type: cell-based
# measurement.parameters: OCI-LY10, 24 hrs, MSD; read-out: IRAK4 MSD degradation in OCI-LY10 at 24 hrs: Average external-Abs DC50
Give measured DC50 for each item. Keep answers brief.

Data request: # query: DC50 of entry CN1C(=O)CCC(N2C(=O)c3cccc(NCC4CC5(CCN(C[C@H]6CC[C@H](n7cc(NC(=O)c8cnn9ccc(N%10C[C@H]%11C[C@@H]%10CO%11)nc89)c(C(F)F)n7)CC6)CC5)C4)c3C2=O)C1=O (some centres unmarked) [I-323]
Data returned: > 1000 nM

Data request: Give the measured DC50 of O=C1CCC(N2C(=O)c3cccc(NCCCOC4CCN(Cc5ccc(-n6cc(NC(=O)c7cnn8ccc(N9CCOCC9)nc78)c(C(F)F)n6)cc5)CC4)c3C2=O)C(=O)N1 (centres unmarked) [I-403] .
Data returned: 10 to 100 nM

Data request: Item under review: Cn1c(=O)n(C2CCC(=O)NC2=O)c2cccc(CCCOCCCOC3CCN(C4CCC(Nc5ncnc6ccc(C#N)cc56)CC4)CC3)c21 (centres unmarked) [I-271] . Reported DC50?
Data returned: > 1000 nM

Data request: Quick check: DC50 of CN(C[C@H]1CC[C@H](n2cc3cc(NC(=O)c4cccc(C(F)(F)F)n4)c(C(C)(C)O)cc3n2)CC1)C1CCC2(CC1)CC(CNc1cccc3c1C(=O)N(C1CCC(=O)NC1=O)C3=O)C2 (some centres unmarked) [I-331] ?
Data returned: < 10 nM

Data request: Could you tell me which DC50 is on file for COc1cc(C(=O)NCCCCN(C)C[C@H]2CC[C@H](n3cc(NC(=O)c4coc(-c5ccnc(NCC6CC6)c5)n4)c(C(F)F)n3)CC2)ccc1NC(=O)[C@@H]1N[C@@H](CC(C)(C)C)[C@](C#N)(c2ccc(Cl)cc2F)[C@H]1c1cccc(Cl)c1F [I-142] ?
Data returned: > 1000 nM

Data request: Can you look up the measured DC50 of CC[C@@H]1CC(=O)N[C@@H]1COc1ncc(C#C[C@H]2CC[C@@H](CN(C)CCCOCCCc3cccc4c3n(C)c(=O)n4C3CCC(=O)NC3=O)CC2)c2cc(C(N)=O)c(OC)cc12 (some centres unmarked) [I-201] for me?
Data returned: 100 to 1000 nM

Data request: Consider the compound CN(CCCOCCCNC(=O)c1ccc(CNCc2ccc(-c3ccc4c(cnn4CC4CC4)c3)cc2)cc1)C[C@H]1CC[C@H](n2cc(NC(=O)c3coc(-c4ccnc(NCC5CC5)c4)n3)c(C(F)F)n2)CC1 [I-131] and give its measured DC50.
Data returned: > 1000 nM

Data request: # DC50 lookup, item CN(CCCOCCCN(C)C(=O)c1ccc(CNCc2ccc(-c3ccc4c(cnn4CC4CC4)c3)cc2)cc1)C[C@H]1CC[C@H](n2cc(NC(=O)c3coc(-c4ccnc(NCC5CC5)c4)n3)c(C(F)F)n2)CC1 [I-133]
Data returned: > 1000 nM

Data request: What does the data say about its DC50? Entry: CC[C@@H]1[C@H](F)C(=O)N[C@@H]1COc1ncc(C#CC2CCN(CCCC3CCN(c4cccc5c4C(=O)N(C4CCC(=O)NC4=O)C5=O)CC3)CC2)c2cc(C(N)=O)c(OC)cc12 (some centres unmarked) [I-234]
Data returned: 10 to 100 nM

Data request: # DC50 lookup, item O=C1CCC(N2C(=O)c3cccc(NC4CC5(CCN(C[C@H]6CC[C@H](n7cc(NC(=O)c8cnn9ccc(N%10C[C@H]%11C[C@@H]%10CO%11)nc89)c(C(F)F)n7)CC6)CC5)C4)c3C2=O)C(=O)N1 (some centres unmarked) [I-381]
Data returned: < 10 nM

Data request: Please look up its DC50: O=C1CCC(N2C(=O)c3cccc(NCCCOC[C@H]4CN(C[C@H]5CC[C@H](n6cc(NC(=O)c7cnn8ccc(N9CCOCC9)nc78)c(C(F)F)n6)CC5)CCO4)c3C2=O)C(=O)N1 (some centres unmarked) [I-332]
Data returned: 10 to 100 nM

Data request: Please report the recorded DC50 for Cc1nc2cccc(N(C)CCCOC3CCN(C[C@H]4CC[C@H](n5cc(NC(=O)c6cnn7ccc(N8CCOCC8)nc67)c(C(F)F)n5)CC4)CC3)c2c(=O)n1C1CCC(=O)NC1=O (some centres unmarked) [I-214] .
Data returned: > 1000 nM

Data request: Which DC50 value belongs to CN(C[C@H]1CN(CCCNc2cccc3c2C(=O)N(C2CCC(=O)NC2=O)C3=O)CCO1)C[C@H]1CC[C@H](n2cc(NC(=O)c3cnn4ccc(N5C[C@H]6C[C@@H]5CO6)nc34)c(C(F)F)n2)CC1 (some centres unmarked) [I-349] ?
Data returned: 10 to 100 nM

Data request: Please give the measured DC50 for this compound: NCCCOCCCNC[C@H]1CC[C@H](n2cc(NC(=O)c3coc(-c4ccnc(NCC5CC5)c4)n3)c(C(F)F)n2)CC1 [I-235]
Data returned: > 1000 nM

Data request: Bench note: what DC50 did CN(CCCOCCCNc1cccc2c1C(=O)N(C1CCC(=O)NC1=O)C2=O)C[C@H]1CC[C@H](n2cc(N(C)C(=O)c3coc(-c4ccnc(NCC5CC5)c4)n3)c(C(F)F)n2)CC1 (some centres unmarked) [I-401] show?
Data returned: > 1000 nM

Data request: Name the reported DC50 value associated with the compound NCC#Cc1ccc(-n2cc(NC(=O)c3coc(-c4ccnc(NCC5CC5)c4)n3)c(C(F)F)n2)cc1 [I-391]
Data returned: > 1000 nM

Data request: For NC[C@H]1CC[C@H](n2cc(NC(=O)c3coc(-c4ccnc(NCC5CC5)c4)n3)c(C(F)F)n2)CC1 [I-312] , what is its reported DC50?
Data returned: > 1000 nM

Data request: # query: DC50 of entry CN(CCc1ccc(CNc2cccc3c2C(=O)N(C2CCC(=O)NC2=O)C3=O)cc1)C[C@H]1CC[C@H](n2cc(NC(=O)c3cnn4ccc(N5C[C@H]6C[C@@H]5CO6)nc34)c(C(F)F)n2)CC1 (some centres unmarked) [I-359]
Data returned: > 1000 nM

Data request: Please report the recorded DC50 for CC[C@@H]1[C@H](F)C(=O)N[C@@H]1COc1ncc(C#CC2CCN(CCCOCCCc3cccc4c3n(C)c(=O)n4C3CCC(=O)NC3=O)CC2)c2cc(C(N)=O)c(OC)cc12 (some centres unmarked) [I-204] .
Data returned: 10 to 100 nM

Data request: Param item = O=C1CCC(N2C(=O)c3cccc(NCCCOC[C@@H]4CN(C[C@H]5CC[C@H](n6cc(NC(=O)c7coc(-c8ccnc(NCC9CC9)c8)n7)c(C(F)F)n6)CC5)CCO4)c3C2=O)C(=O)N1 (some centres unmarked) [I-353] ; retrieve measured DC50.
Data returned: 10 to 100 nM

###

# System: OCI-LY10
# measurement.notes: CTG Cell Viability Assay - OCI-LY10
# Type: cell-based, human
# measurement.parameters: Homo sapiens, OCI-Ly10, 96 h, OCI-LY10, 4 days; read-out: CTG Cell Viability Assay - OCI-LY10: Average external-IC50
pIC50: −log10 of the molar value.
endpoint: pIC50

Data request: Endpoint output: pIC50 of "Cn1c(=O)n([C@H]2CCC(=O)NC2=O)c2cccc(CCCOC3CCN(C[C@H]4CC[C@H](n5cc(NC(=O)c6cnn7ccc(N8CCOCC8)nc67)c(C(F)F)n5)CC4)CC3)c21" . Value?
Data returned: < 6.00

Data request: Could you share which pIC50 value was measured for Cn1c(=O)n(C2CCC(=O)NC2=O)c2ccc(CCCCOCCCCNC[C@H]3CC[C@H](n4cc(NC(=O)c5cnn6ccc(N7CCNCC7)nc56)c(C(F)F)n4)CC3)cc21 (some centres unmarked) ?
Data returned: < 6.00

Data request: For the compound shown here, NC(=O)c1nn([C@H]2CC[C@H](C(=O)NCCOCCOCCNc3cccc4c3C(=O)N(C3CCC(=O)NC3=O)C4=O)CC2)cc1NC(=O)c1coc(-c2ccnc(NCC(F)(F)F)c2)n1 (single isomer, unassigned) , give the reported pIC50.
Data returned: < 6.00

Data request: Data request, read-out pIC50, for Cn1c(=O)n(C2CCC(=O)NC2=O)c2ccc(CN3CCN(CCO[C@H]4C[C@H](N(C)C(=O)[C@H]5CC[C@H](n6cc(NC(=O)c7coc(-c8ccnc(NCC9CC9)c8)n7)c(C(F)F)n6)CC5)C4)CC3)cc21 (some centres unmarked)
Data returned: > 7.30

Data request: Which pIC50 value is on record for CN(CCCN1CCO[C@H](CNc2cccc3c2C(=O)N(C2CCC(=O)NC2=O)C3=O)C1)C[C@H]1CC[C@H](n2cc(NC(=O)c3cnn4ccc(N5C[C@H]6C[C@@H]5CO6)nc34)c(C(F)F)n2)CC1 (some centres unmarked) ?
Data returned: > 7.30
